Experiment: Human liver microsomal stability assay (Test 1)
Format: in vitro ADME
Details: liver microsomes, 0.5 uM test compound, 37°C, up to 45 minutes, 0.5 mg microsomal protein, NADPH generating system, pH 7.4, read-out: Test 1 T1/2
Method: Four assays on compounds were carried out by the following methods with the results shown in Table I. • (Test 1) Human liver microsomal stability assay was conducted by incubating 0.5 uM test compounds at 37°C for up to 45 minutes in 50 mM of potassium phosphate buffer (pH 7.4) containing 0.5 mg of microsomal protein and 50 µL of NADPH generating system (7.8 mg of glucose 6-phosphate, 1.7 mg of NADPH and 6 U of glucose 6-phosphate dehydrogenase per mL in 2% w/v of sodium bicarbonate). […]
endpointName: half-life at 0.5 uM

Some compounds with recorded half-life at 0.5 uM:
compound="CCCCCC(O)CCC1C(OC(=O)OCC)CC2Cc3c(cccc3OCC(=O)OC)CC21 (centres unmarked) [Compound 25]" observedmeasurement="< 15 min"
compound="CCCCCC(O)CCC1C(O)CC2Cc3c(cccc3OCC(=O)OC(C)(C)C)CC21 (centres unmarked) [Compound 28]" observedmeasurement="< 15 min"
compound="CCCCCC(O)CCC1C(O)CC2Cc3c(cccc3OCC(=O)NCC(=O)OC)CC21 (centres unmarked) [Compound 12]" observedmeasurement="< 15 min"
compound="CCCCCC(O)CCC1C(O)CC2Cc3c(cccc3OCC(=O)OC)CC21 (centres unmarked) [Compound 15]" observedmeasurement="< 15 min"
compound="CCCCC[C@H](O)CC[C@@H]1[C@H]2Cc3cccc4c3C[C@H]2C[C@H]1OC(=O)CO4 [Compound 57, Treprostinil 2-hydroxy lactone]" observedmeasurement="> 60 min"
compound="CCCCCC(O)CCC1C(O)CC2Cc3c(cccc3OCC(=O)NCC(F)(F)F)CC21 (centres unmarked) [Compound 14]" observedmeasurement="< 15 min"
compound="CCCCCC(O)CCC1C(O)CC2Cc3c(cccc3OCC(=O)OCCO)CC21 (centres unmarked) [Compound 9]" observedmeasurement="< 15 min"
compound="CCCCCC(O)CCC1C(O)CC2Cc3c(cccc3OCC(=O)NCCO)CC21 (centres unmarked) [Compound 7]" observedmeasurement="15 to 30 min"

List the reported half-life at 0.5 uM of each compound below.
1. CCCCCC(O)CCC1C(O)CC2Cc3c(cccc3OCC(=O)NCCCO)CC21 (centres unmarked) [Compound 11]
2. CCCCCC(O)CCC1C(OC(=O)CCCC)CC2Cc3c(cccc3OCC(=O)OC)CC21 (centres unmarked) [Compound 22]
3. CCCCCC(O)CCC1C(OC(=O)CCC(=O)OCC)CC2Cc3c(cccc3OCC(=O)OC)CC21 (centres unmarked) [Compound 27]

Marked response:
1: < 15 min; 2: < 15 min; 3: < 15 min

###

Test: Human liver microsomal stability assay (Test 1)
Assay type: in vitro ADME
Settings: liver microsomes, 0.5 uM test compound, 37°C, up to 45 minutes, 0.5 mg microsomal protein, NADPH generating system, pH 7.4, read-out: Test 1 T1/2
Protocol: Four assays on compounds were carried out by the following methods with the results shown in Table I. • (Test 1) Human liver microsomal stability assay was conducted by incubating 0.5 uM test compounds at 37°C for up to 45 minutes in 50 mM of potassium phosphate buffer (pH 7.4) containing 0.5 mg of microsomal protein and 50 µL of NADPH generating system (7.8 mg of glucose 6-phosphate, 1.7 mg of NADPH and 6 U of glucose 6-phosphate dehydrogenase per mL in 2% w/v of sodium bicarbonate). […]
Exercise: state measured half-life at 0.5 uM for each of the molecules provided.

molecule="CCCCCC(O)CCC1C(OC(=O)CC(C)C)CC2Cc3c(cccc3OCC(=O)OC)CC21 (centres unmarked)" endpointname="half-life at 0.5 uM" observedmeasurement="< 15 min"
molecule="CCCCCC(O)CCC1C(O)CC2Cc3c(cccc3OCC(=O)NCC3CC3)CC21 (centres unmarked)" endpointname="half-life at 0.5 uM" observedmeasurement="< 15 min"
molecule="CCCCCC(O)CCC1C(O)CC2Cc3c(cccc3OCC(=O)OCC3CC3)CC21 (centres unmarked)" endpointname="half-life at 0.5 uM" observedmeasurement="< 15 min"
molecule="CCCCCC(O)CCC1C(O)CC2Cc3c(cccc3OCC(=O)OCCCF)CC21 (centres unmarked)" endpointname="half-life at 0.5 uM" observedmeasurement="< 15 min"
molecule="CCCCCC(O)CCC1C(O)CC2Cc3c(cccc3OCC(=O)OC(C)C)CC21 (centres unmarked)" endpointname="half-life at 0.5 uM" observedmeasurement="< 15 min"
molecule="CCCCCC(O)CCC1C(O)CC2Cc3c(cccc3OCC(=O)OC3CC4CCC3C4)CC21 (centres unmarked)" endpointname="half-life at 0.5 uM" observedmeasurement="< 15 min"

Quick request: half-life at 0.5 uM for each listed item, please.
1. CCCCCC(O)CCC1C(O)CC2Cc3c(cccc3OCC(=O)NCC(F)(F)C(F)(F)F)CC21 (centres unmarked)
2. CCCCCC(O)CCC1C(O)CC2Cc3c(cccc3OCC(=O)OC(C)C(C)C)CC21 (centres unmarked)

Marked response:
1. < 15 min
2. < 15 min

###

Assay: Human plasma stability assay (Test 2)
Format: in vitro ADME
Conditions: 0.5 uM test compound, 37°C, up to 120 minutes, heparinated human plasma, read-out: Test 2 T1/2
Procedure: Four assays on compounds were carried out by the following methods with the results shown in Table I. • (Test 1) Human liver microsomal stability assay was conducted by incubating 0.5 uM test compounds at 37°C for up to 45 minutes in 50 mM of potassium phosphate buffer (pH 7.4) containing 0.5 mg of microsomal protein and 50 µL of NADPH generating system (7.8 mg of glucose 6-phosphate, 1.7 mg of NADPH and 6 U of glucose 6-phosphate dehydrogenase per mL in 2% w/v of sodium bicarbonate). […]
endpointName: half-life at 0.5 uM

Below are worked cases with known answers.
compound="CCCCCC(O)CCC1C(O)CC2Cc3c(cccc3OCC(=O)OC(C)C(C)C)CC21 (stereo not shown) [Compound 17]" observedmeasurement="0.517 to 1 h"
compound="CCCCCC(O)CCC1C(O)CC2Cc3c(cccc3OCC(=O)OCC(C)(C)C)CC21 (stereo not shown) [Compound 16]" observedmeasurement="0.25 to 0.5 h"
compound="CCCCCC(O)CCC1C(O)CC2Cc3c(cccc3OCC(=O)NCC3CC3)CC21 (stereo not shown) [Compound 2]" observedmeasurement="> 1 h"
compound="CCCCCC(O)CCC1C(O)CC2Cc3c(cccc3OCC(=O)NCCO)CC21 (stereo not shown) [Compound 7]" observedmeasurement="> 1 h"
compound="CCCCCC(O)CCC1C(OC(=O)CCC(=O)OCC)CC2Cc3c(cccc3OCC(=O)OC)CC21 (stereo not shown) [Compound 27]" observedmeasurement="> 1 h"
compound="CCCCCC(O)CCC1C(OC(=O)CCCC)CC2Cc3c(cccc3OCC(=O)OC)CC21 (stereo not shown) [Compound 22]" observedmeasurement="> 1 h"

Let us examine a further case.
For CCCCCC(O)CCC1C(O)CC2Cc3c(cccc3OCC(=O)OC(C)C(C)(C)C)CC21 (stereo not shown) [Compound 18] the compound record lists half-life at 0.5 uM as > 1 h

###

test: Human skin homogenate stability assay (Test 3); assay type: in vitro ADME; settings: 0.5 uM test compound, 37°C, up to 45 minutes, 0.5 mg human skin homogenate protein, NADPH generating system, pH 7.4, read-out: Test 3 T1/2
What half-life at 0.5 uM was measured for each of the following?

# per-item lookup of half-life at 0.5 uM; items listed below
1. CCCCCC(O)CCC1C(O)CC2Cc3c(cccc3OCC(=O)OC3CC4CCC3C4)CC21 (stereo not drawn) [Compound 19]
2. CCCCCC(O)CCC1C(O)CC2Cc3c(cccc3OCC(=O)OCC(C)(C)C)CC21 (stereo not drawn) [Compound 16]
3. CCCCCC(O)CCC1C(O)CC2Cc3c(cccc3OCC(=O)OC(C)C)CC21 (stereo not drawn) [Compound 20]
4. CCCCCC(O)CCC1C(O)CC2Cc3c(cccc3OCC(=O)NCC(F)(F)F)CC21 (stereo not drawn) [Compound 14]
5. CCCCCC(O)CCC1C(O)CC2Cc3c(cccc3OCC(=O)OC(C)C(C)C)CC21 (stereo not drawn) [Compound 17]
6. CCCCCC(O)CCC1C(OC(=O)CCCC)CC2Cc3c(cccc3OCC(=O)OC)CC21 (stereo not drawn) [Compound 22]
7. CCCCCC(O)CCC1C(O)CC2Cc3c(cccc3OCC(=O)OC(C)C(C)(C)C)CC21 (stereo not drawn) [Compound 18]

Marked response:
15 to 30 min
15 to 30 min
< 15 min
> 60 min
15 to 30 min
> 60 min
> 60 min

Report half-life at 0.5 uM for every entry below.
1. CCCCCC(O)CCC1C(OC(=O)OCC)CC2Cc3c(cccc3OCC(=O)OC)CC21 (stereo not drawn) [Compound 25]
2. CCCCCC(O)CCC1C(O)CC2Cc3c(cccc3OCC(=O)OC)CC21 (stereo not drawn) [Compound 15]

Marked response:
["31 to 60 min", "< 15 min"]

These data points were gathered from patent EP3828160A1.
